Quick list: IC50 per entry.
Target: Carbonic Anhydrase IX (CA IX) (Homo sapiens)
Construct: gene CA9; AA 1-459, GST tag
Experiment: CA inhibitor screening kit (BioVision K473-100), recombinant CA IX, absorbance at […] nm, kinetic mode
Assay type: biochemical

- MOLECULAR_STRING: "Nc1cc(Nc2ccc(S(=O)(=O)Nc3ccccn3)cc2)n(-c2ccccc2)n1"
  UNIT_NAME: "µM"
  IC50: 0.336
- MOLECULAR_STRING: "Nc1nn(-c2ccccc2)c(-c2ccccc2)c1C(=O)Nc1ccc(S(=O)(=O)Nc2ccccn2)cc1"
  UNIT_NAME: "µM"
  IC50: 0.128
